target_under_test: CYP2C8 (Homo sapiens)
Sequence (P10632 whole entry): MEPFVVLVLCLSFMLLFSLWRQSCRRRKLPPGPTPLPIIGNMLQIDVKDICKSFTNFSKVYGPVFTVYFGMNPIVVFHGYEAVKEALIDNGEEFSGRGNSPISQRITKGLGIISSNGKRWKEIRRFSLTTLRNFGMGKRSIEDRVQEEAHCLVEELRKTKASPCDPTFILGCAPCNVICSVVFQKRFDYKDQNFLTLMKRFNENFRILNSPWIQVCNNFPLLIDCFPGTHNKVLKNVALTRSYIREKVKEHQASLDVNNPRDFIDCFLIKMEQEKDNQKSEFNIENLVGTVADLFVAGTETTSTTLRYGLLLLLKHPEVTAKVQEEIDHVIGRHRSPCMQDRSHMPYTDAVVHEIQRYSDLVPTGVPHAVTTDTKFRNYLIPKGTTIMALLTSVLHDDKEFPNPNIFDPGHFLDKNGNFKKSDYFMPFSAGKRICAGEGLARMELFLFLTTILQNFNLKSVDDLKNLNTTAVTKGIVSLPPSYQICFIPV
protocol: Inhibition of CYP2C8 in human liver microsomes assessed as enzyme-mediated metabolite formation at 10 uM using paclitaxel as substrate preincubated for 20 mins followed by substrate addition measured after 30 mins in presence of NADPH by LC-MS/MS analysis relative to control
Assay type: ADME
Set-up: scale not given: the % may be the effect or the level left
condition_description: probe paclitaxel, read-out: Activity
property: activity at 0.5 h, 10 µM (%)
Your answer should be a plain number; it is taken to be in %.

QUERY: Indicate the recorded activity at 0.5 h, 10 µM value for this molecule: CCCCCCCC(=O)CCc1ccc(O)c(OC)c1
RESULT: 49
